Source: patent US10407429B2

system: coxsackie B5virus; experiment: Antiviral CPE assay in mammalian cell culture; assay type: cell-based; settings: read-out: inhibition capacity (IC50) B5
pIC50: −log10 of the molar value.
RESULT_TYPE: pIC50

> print(dat)
                         compound.structure  result.type  endpoint.value
1  COc1ccc(CNc2nc(C)nc3c(-c4ccc(OC)c(OC)c4)c(C)nn23)cc1        pIC50          > 7.00
2  COc1ccc(-c2c(C)nn3c(NCc4ccc5c(c4)OCO5)nc(C)nc23)cc1OC        pIC50          > 7.00
3  COc1ccc(-c2c(C)nn3c(NCC4CCNCC4)nc(C)nc23)cc1OC        pIC50          < 6.00
4  COc1ccc(-c2c(C)nn3c(NCc4ccn(C)n4)nc(C)nc23)cc1OC        pIC50          > 7.00
